- System: AIM+ and AIM− CD4+ T cells from peptide-expanded PBMCs
- ASSAY_COMMENT: TCRβ CDR3 sequencing (immunoSEQ) of sorted AIM+ and AIM− CD4+ T cells;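 also: genomic DNA from sorted cells as template, amplification bias-controlled two-step multiplex PCR, APOB6 pool at 10 µg/ml per peptide, CD40 blocking antibody added before restimulation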
- Format: cell-based, human
- CONDITIONS: Donor 1; PBMCs expanded 14 days and restimulated 24 h with APOB6
REPORTED_METRIC: No. of clone-specific productive templates, AIM+ CD4+ T (Total 21697)
Please reply with the value in numeric form only.

# assay system AIM+ and AIM− CD4+ T cells from peptide-expanded PBMCs: give No. of clone-specific productive templates, AIM+ CD4+ T (Total 21697) of CSARVTGGGAHTGELFF: TCRβ CDR3 clone, TCRBV20-X+TCRBJ02-02, Donor 1
422

Give measured No. of clone-specific productive templates, AIM+ CD4+ T (Total 21697) for CASSLALGTGDTEAFF: TCRβ CDR3 clone, TCRBV05-01+TCRBJ01-01, Donor 1 (AIM+ and AIM− CD4+ T cells from peptide-expanded PBMCs).
410

With AIM+ and AIM− CD4+ T cells from peptide-expanded PBMCs as the test system, provide measured No. of clone-specific productive templates, AIM+ CD4+ T (Total 21697) for this substance: CASSLTRIPEQYF: TCRβ CDR3 clone, TCRBV28-01+TCRBJ02-07, Donor 1
459

Write down the reported No. of clone-specific productive templates, AIM+ CD4+ T (Total 21697) (system: AIM+ and AIM− CD4+ T cells from peptide-expanded PBMCs) of CASSYSSGGGNEQFF: TCRβ CDR3 clone, TCRBV06-05+TCRBJ02-01, Donor 1
348

Tell me No. of clone-specific productive templates, AIM+ CD4+ T (Total 21697) of CASSIRPNDEQFF: TCRβ CDR3 clone, TCRBV09-01+TCRBJ02-01, Donor 1 when tested on AIM+ and AIM− CD4+ T cells from peptide-expanded PBMCs.
366

Give No. of clone-specific productive templates, AIM+ CD4+ T (Total 21697) for CASSTTGLAAYNEQFF: TCRβ CDR3 clone, TCRBV19-01+TCRBJ02-01, Donor 1 tested on AIM+ and AIM− CD4+ T cells from peptide-expanded PBMCs.
519

Report No. of clone-specific productive templates, AIM+ CD4+ T (Total 21697) on AIM+ and AIM− CD4+ T cells from peptide-expanded PBMCs for this entry: CASRTIGQGSFNYGYTF: TCRβ CDR3 clone, TCRBV27-01+TCRBJ01-02, Donor 1
257

Find the measured No. of clone-specific productive templates, AIM+ CD4+ T (Total 21697) of CASSFVDSPESYEQYF: TCRβ CDR3 clone, TCRBV12-X+TCRBJ02-07, Donor 1 with AIM+ and AIM− CD4+ T cells from peptide-expanded PBMCs as test system.
486

// fetch No. of clone-specific productive templates, AIM+ CD4+ T (Total 21697) for CASSLAGTGTNEQFF: TCRβ CDR3 clone, TCRBV05-01+TCRBJ02-01, Donor 1 ; system: AIM+ and AIM− CD4+ T cells from peptide-expanded PBMCs
396

Consider the substance CASRGQRDTGELFF: TCRβ CDR3 clone, TCRBV19-01+TCRBJ02-02, Donor 1 tested on AIM+ and AIM− CD4+ T cells from peptide-expanded PBMCs; state its No. of clone-specific productive templates, AIM+ CD4+ T (Total 21697).
367
